B1: LINE1-full (parent)
chain: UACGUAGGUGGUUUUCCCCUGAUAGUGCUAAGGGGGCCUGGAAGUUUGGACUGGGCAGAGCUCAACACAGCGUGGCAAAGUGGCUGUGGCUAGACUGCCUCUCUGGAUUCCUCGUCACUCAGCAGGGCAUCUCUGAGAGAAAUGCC

- Variants of: B1
- Protocol Notes: self-cleavage, relative activity (ratio to wild type); higher = more cleavage; in vitro, sequencing; the parent is a self-cleaving ribozyme
// classify(record): look up self-cleavage in ranges low group = under 0.3, middle group = from 0.3 up to 1, high group = 1 and over

| Mutation String | Label |
| --- | --- |
| A59G U73G | low group |

In plain terms, what class is U20C G44U ?
high group

Just checking, what class would you give G70A A140G here?
low group

Would you mind sorting A107C A117U into the appropriate category?
high group

Textbook exercise: identify the category of the variant given here, U46A A107U , according to its measured value.
high group

Category of U81G A129G :
high group

Note: place this variant into its band. Item: A78G U104A
high group

Note: place this variant into its band. Item: A2G U81C
high group

Class? Entry: C3A A64G
low group
